Origin of measurements: the supplement of paper PMC11061612

System: H9 (T-Cell Non-Hodgkin's Lymphoma)
experimentalDetails: Bliss excess, mean over the matrix (fraction); higher = more synergy;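 further: after 72 h of two-drug dosing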
Output condition met for Bliss excess not less than -0.02; output condition not met otherwise.

Textbook exercise: given the entry C[C@@H]1COCCN1c1cc(C2([S@](C)(=N)=O)CC2)nc(-c2ccnc3[nH]ccc23)n1 [AZD6738] + O=C(c1cc(Cc2n[nH]c(=O)c3ccccc23)ccc1F)N1CCN(C(=O)C2CC2)CC1 [Olaparib] (first compound max 10 µM, 7x7, partner max 10 µM) , state whether its Bliss excess is greater than or equal to -0.02.
condition met

Also Cc1c2c(nn1C)CSCc1cc(n(C)n1)CSc1cc(c3ccccc3c1)OCCCc1c(C(=O)O)n(C)c3c-2c(Cl)ccc13 [AZD5991] + C1CN(CCC1(C(=O)N[C@@H](CCO)C2=CC=C(C=C2)Cl)N)C3=NC=NC4=C3C=CN4 [Capivasertib] (first compound max 1 µM, 7x7, partner max 3 µM) ?
condition not met

Also Cc1c2c(nn1C)CSCc1cc(n(C)n1)CSc1cc(c3ccccc3c1)OCCCc1c(C(=O)O)n(C)c3c-2c(Cl)ccc13 [AZD5991] + C=CCn1c(=O)c2cnc(Nc3ccc(N4CCN(C)CC4)cc3)nc2n1-c1cccc(C(C)(C)O)n1 [AZD1775] (first compound max 1 µM, partner max 1 µM) ?
condition not met

Also Cc1c2c(nn1C)CSCc1cc(n(C)n1)CSc1cc(c3ccccc3c1)OCCCc1c(C(=O)O)n(C)c3c-2c(Cl)ccc13 [AZD5991] + C[C@@H]1COCCN1C2=NC(=NC(=C2)C3(CC3)[S@](=N)(=O)C)C4=C5C=CNC5=NC=C4 [AZD6738] (first compound max 1 µM, 7x7, partner max 10 µM) ?
condition met

Also NC1(C(=O)N[C@@H](CCO)c2ccc(Cl)cc2)CCN(c2ncnc3[nH]ccc23)CC1 [Capivasertib] + CC(=O)c1c(C)c2cnc(Nc3ccc(N4CCNCC4)cn3)nc2n(C2CCCC2)c1=O [Palbociclib] (first compound max 10 µM, 7x7, partner max 10 µM) ?
condition not met
